Target: Hck (UniProt P08631)
Sequence (P08631 whole entry, looked up): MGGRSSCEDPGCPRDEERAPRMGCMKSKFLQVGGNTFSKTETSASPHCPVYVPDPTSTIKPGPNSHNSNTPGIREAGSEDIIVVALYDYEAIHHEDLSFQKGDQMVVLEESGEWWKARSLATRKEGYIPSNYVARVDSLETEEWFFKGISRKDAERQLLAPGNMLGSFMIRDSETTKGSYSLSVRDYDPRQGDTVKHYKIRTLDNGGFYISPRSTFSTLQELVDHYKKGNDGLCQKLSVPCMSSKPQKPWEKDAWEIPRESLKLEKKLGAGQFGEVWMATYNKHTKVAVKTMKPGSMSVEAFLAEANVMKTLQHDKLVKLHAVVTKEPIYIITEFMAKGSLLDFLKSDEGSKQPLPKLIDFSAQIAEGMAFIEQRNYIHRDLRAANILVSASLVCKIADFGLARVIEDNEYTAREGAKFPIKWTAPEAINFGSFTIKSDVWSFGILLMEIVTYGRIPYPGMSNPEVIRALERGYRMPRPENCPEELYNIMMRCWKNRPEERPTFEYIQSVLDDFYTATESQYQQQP
Experiment: phosphorylation enrichment, bacterial display (enrichment ratio); higher = better substrate or ligand; peptides without Tyr show the background;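 note: 11-residue human phosphosite peptides and single-mutation variants displayed on the E. coli surface, counted by deep sequencing, each peptide's frequency after selection divided by its frequency in the unselected input library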;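 note: frequency after pTyr selection over input frequency; kinase dosed for 20-30% of maximal phosphorylation in three min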
ASSAY_ENDPOINT: phosphorylation enrichment

These solved cases illustrate the format of a correct answer.
                    polymer_sequence           test_system  observed_result
0       QEGPEYWDQQT [HLA-A_Y83_E87Q]  Hck (UniProt P08631)             0.58
1     YSKTQYNQVPR [CXADR_Y318_S323R]  Hck (UniProt P08631)            0.487
2      IHFPPYTDWNQ [ALDH3B2_Y365_YF]  Hck (UniProt P08631)            0.519
3             NMSRIYSTAKV [ACE_Y151]  Hck (UniProt P08631)            0.528
4  PIFEGYGLPHA [ACTA1_Y171_A172G_YF]  Hck (UniProt P08631)            0.642
5       PVGVLYEVKVY [PTS_Y128_K129E]  Hck (UniProt P08631)            0.728

Return reported phosphorylation enrichment. Input sequence: SDGGCYEQLFV [MC4R_Y41]
2.14

Give phosphorylation enrichment for the following sequence: HHTNEYEYDEL [TGM1_Y134_D132N]
0.489

Name the recorded phosphorylation enrichment of the item KMATAYIRSMS [BCO1_Y264_R267S] in your answer.
0.388

// Input: REEKNYKHKET [BCLAF1_Y459_L461H] . Output its phosphorylation enrichment only.
0.53

Read the entry RLLVVYRWTQR [HBB_Y36_P37R] and write its reported phosphorylation enrichment.
0.567
